Below: a set of entries, each annotated with reported LC retention time.
METHOD: RP, Waters ACQUITY UPLC BEH C18, 100 × 1 mm, 1.7 µm, 50 °C, 0.3 mL/min, estimated dead time 0.17 min; A: water + 0.1% formic acid + 20 mM ammonium formate; B: methanol + 0.1% formic acid + 20 mM ammonium formate; gradient (min/%B) 0/0 15/100 21/100 22/0 30/0
DETAILS: stereoisomer not certain
RESULT TYPE: LC retention time (min)

                                   molecule        result_type  quantitative_readout
0  O=C(Nc1ccc([N+](=O)[O-])cc1Cl)c1cc(Cl)ccc1O [Niclosamide]  LC retention time                  16.7
1  O=C(OCc1ccccc1)c1ccccc1C(=O)OCc1ccccc1 [Dibenzylphthalate]  LC retention time                  16.3
2                  CC(C)OC(=O)Nc1cccc(Cl)c1  LC retention time                  14.4
3                        Cn1ncc(N)c(Cl)c1=O  LC retention time                  5.18
4                                CC(C)(N)CN  LC retention time                  18.5
5                                 COCCOCCOC  LC retention time                  7.31
6                  c1ccc2sc(NC3CCCCC3)nc2c1  LC retention time                  14.1
7  NC(=NCCCCCCN=C(N)N=C(N)Nc1ccc(Cl)cc1)N=C(N)Nc1ccc(Cl)cc1  LC retention time                  12.2
8  O=S(=O)(O)ON=C(Cc1c[nH]c2ccccc12)SC1OC(CO)C(O)C(O)C1O (centres undefined)  LC retention time                  6.39
